src = patent US20230413819A1

assay_protocol: Plasma concentration of mivorilaner, 0.75 mg/kg daily oral (Examples 4 and 10)
Assay type: in vivo, dogs
condition_details: dog, po, 0.75 mg/kg/day, 0.75 mg/kg/day oral days 0-29, Day 30, read-out: Mivorilaner Concentration, individual canines
Procedure: Each dog in the treatment group is to receive by mouth a liquid formulation of isoxazoline. The dosage of 0.75 mg/kg is to be administered to the dogs on each of days 0-29. Dogs in the control group are not to receive isoxazoline or any other tick control treatment. Each dog in the treatment group is to be offered its daily ration (dry food) and the individual doses of liquid formulation are to be administered after the individual dog has eaten at least 25% of its total daily ration. […]

smiles_str	concentration at 30 day, ng/mL
O=C(CNC(=O)c1sc(C2=NO[C@@](c3cc(Cl)c(F)c(Cl)c3)(C(F)(F)F)C2)c2c1CCC2)NCC(F)F	2890

----------
assay_protocol: Average plasma concentration of mivorilaner, various daily oral doses (Examples 5 and 11)
Assay type: in vivo, dogs
condition_details: dog, Group 5, 1.0 mg/kg/day oral, fed, 720 h after initial dose

smiles_str	concentration at 720 h
O=C(CNC(=O)c1sc(C2=NO[C@@](c3cc(Cl)c(F)c(Cl)c3)(C(F)(F)F)C2)c2c1CCC2)NCC(F)F	3760 ng/mL

----------
assay_protocol: Average plasma concentration of mivorilaner, various daily oral doses (Examples 5 and 11)
Type: in vivo, dogs
condition_details: dog, Group 2, 0.125 mg/kg/day oral, fed, 336 h after initial dose
outcome_measure: concentration at 336 h (ng/mL)

smiles_str	units	reported_value
O=C(CNC(=O)c1sc(C2=NO[C@@](c3cc(Cl)c(F)c(Cl)c3)(C(F)(F)F)C2)c2c1CCC2)NCC(F)F	ng/mL	384

----------
assay_protocol: Average plasma concentration of mivorilaner, various daily oral doses (Examples 5 and 11)
Format: in vivo, dogs
condition_details: dog, Group 2, 0.125 mg/kg/day oral, fed, 888 h after initial dose

smiles_str	concentration at 888 h [ng/mL]
O=C(CNC(=O)c1sc(C2=NO[C@@](c3cc(Cl)c(F)c(Cl)c3)(C(F)(F)F)C2)c2c1CCC2)NCC(F)F	448

----------
assay_protocol: Plasma concentration of mivorilaner, 0.75 mg/kg daily oral (Examples 4 and 10)
Assay type: in vivo, dogs
condition_details: dog, 0.75 mg/kg/day, 0.75 mg/kg/day oral days 0-29, Day 3, read-out: Mivorilaner Concentration, Average of 6 canines

smiles_str	concentration at 3 day / ng/mL
O=C(CNC(=O)c1sc(C2=NO[C@@](c3cc(Cl)c(F)c(Cl)c3)(C(F)(F)F)C2)c2c1CCC2)NCC(F)F	674

----------
assay_protocol: Average plasma concentration of mivorilaner, various daily oral doses (Examples 5 and 11)
Type: in vivo, dogs
condition_details: dog, Group 2, 0.125 mg/kg/day oral, fed, 720 h after initial dose

smiles_str	units	concentration at 720 h
O=C(CNC(=O)c1sc(C2=NO[C@@](c3cc(Cl)c(F)c(Cl)c3)(C(F)(F)F)C2)c2c1CCC2)NCC(F)F	ng/mL	420

----------
assay_protocol: Average plasma concentration of mivorilaner, various daily oral doses (Examples 5 and 11)
Assay type: in vivo, dogs
condition_details: dog, Group 4, 0.5 mg/kg/day oral, fed, 720 h after initial dose

smiles_str	concentration at 720 h
O=C(CNC(=O)c1sc(C2=NO[C@@](c3cc(Cl)c(F)c(Cl)c3)(C(F)(F)F)C2)c2c1CCC2)NCC(F)F	1870 ng/mL

----------
assay_protocol: Plasma concentration of mivorilaner, 0.75 mg/kg daily oral (Examples 4 and 10)
Format: in vivo, dogs
condition_details: dog, 0.75 mg/kg/day, 0.75 mg/kg/day oral days 0-29, Day 37, read-out: Mivorilaner Concentration, individual canines
outcome_measure: concentration at 37 day

smiles_str	reported_value
O=C(CNC(=O)c1sc(C2=NO[C@@](c3cc(Cl)c(F)c(Cl)c3)(C(F)(F)F)C2)c2c1CCC2)NCC(F)F	2410 ng/mL

----------
assay_protocol: Average plasma concentration of mivorilaner, various daily oral doses (Examples 5 and 11)
Type: in vivo, dogs
condition_details: dog, Group 5, 1.0 mg/kg/day oral, fed, 1056 h after initial dose

smiles_str	concentration at 1056 h / ng/mL
O=C(CNC(=O)c1sc(C2=NO[C@@](c3cc(Cl)c(F)c(Cl)c3)(C(F)(F)F)C2)c2c1CCC2)NCC(F)F	4260

----------
assay_protocol: Average plasma concentration of mivorilaner, various daily oral doses (Examples 5 and 11)
Format: in vivo, dogs
condition_details: dog, Group 2, 0.125 mg/kg/day oral, fed, 0 h after initial dose

smiles_str	concentration at 0 h / ng/mL
O=C(CNC(=O)c1sc(C2=NO[C@@](c3cc(Cl)c(F)c(Cl)c3)(C(F)(F)F)C2)c2c1CCC2)NCC(F)F	0

----------
assay_protocol: Average plasma concentration of mivorilaner, various daily oral doses (Examples 5 and 11)
Assay type: in vivo, dogs
condition_details: dog, Group 3, 0.25 mg/kg/day oral, fed, 504 h after initial dose

compound	concentration at 504 h
O=C(CNC(=O)c1sc(C2=NO[C@@](c3cc(Cl)c(F)c(Cl)c3)(C(F)(F)F)C2)c2c1CCC2)NCC(F)F [mivorilaner]	878 ng/mL

----------
assay_protocol: Plasma concentration of mivorilaner, 0.75 mg/kg daily oral (Examples 4 and 10)
Format: in vivo, dogs
condition_details: dog, 0.75 mg/kg/day, 0.75 mg/kg/day oral days 0-29, Day 30, read-out: Mivorilaner Concentration, Average of 6 canines

smiles_str	units	concentration at 30 day
O=C(CNC(=O)c1sc(C2=NO[C@@](c3cc(Cl)c(F)c(Cl)c3)(C(F)(F)F)C2)c2c1CCC2)NCC(F)F	ng/mL	2630

----------
assay_protocol: Plasma concentration of mivorilaner, 0.75 mg/kg daily oral (Examples 4 and 10)
Type: in vivo, dogs
condition_details: dog, 0.75 mg/kg/day, 0.75 mg/kg/day oral days 0-29, Day 21, read-out: Mivorilaner Concentration, individual canines

smiles_str	concentration at 21 day / ng/mL
O=C(CNC(=O)c1sc(C2=NO[C@@](c3cc(Cl)c(F)c(Cl)c3)(C(F)(F)F)C2)c2c1CCC2)NCC(F)F	2820

----------
assay_protocol: Plasma concentration of mivorilaner, 0.75 mg/kg daily oral (Examples 4 and 10)
Assay type: in vivo, dogs
condition_details: dog, 0.75 mg/kg/day, 0.75 mg/kg/day oral days 0-29, Day 14, read-out: Mivorilaner Concentration, individual canines
outcome_measure: concentration at 14 day

smiles_str	outcome_measure	reported_value
O=C(CNC(=O)c1sc(C2=NO[C@@](c3cc(Cl)c(F)c(Cl)c3)(C(F)(F)F)C2)c2c1CCC2)NCC(F)F	concentration at 14 day	2530 ng/mL

----------
assay_protocol: Average plasma concentration of mivorilaner, various daily oral doses (Examples 5 and 11)
Assay type: in vivo, dogs
condition_details: dog, Group 3, 0.25 mg/kg/day oral, fed, 336 h after initial dose

smiles_str	concentration at 336 h
O=C(CNC(=O)c1sc(C2=NO[C@@](c3cc(Cl)c(F)c(Cl)c3)(C(F)(F)F)C2)c2c1CCC2)NCC(F)F	883 ng/mL

----------
assay_protocol: Average plasma concentration of mivorilaner, various daily oral doses (Examples 5 and 11)
Format: in vivo, dogs
condition_details: dog, Group 4, 0.5 mg/kg/day oral, fed, 1056 h after initial dose

smiles_str	concentration at 1056 h
O=C(CNC(=O)c1sc(C2=NO[C@@](c3cc(Cl)c(F)c(Cl)c3)(C(F)(F)F)C2)c2c1CCC2)NCC(F)F	2010 ng/mL

----------
assay_protocol: Average plasma concentration of mivorilaner, various daily oral doses (Examples 5 and 11)
Format: in vivo, dogs
condition_details: dog, Group 3, 0.25 mg/kg/day oral, fed, 1056 h after initial dose
outcome_measure: concentration at 1056 h (ng/mL)

smiles_str	reported_value
O=C(CNC(=O)c1sc(C2=NO[C@@](c3cc(Cl)c(F)c(Cl)c3)(C(F)(F)F)C2)c2c1CCC2)NCC(F)F	945

----------
assay_protocol: Average plasma concentration of mivorilaner, various daily oral doses (Examples 5 and 11)
Type: in vivo, dogs
condition_details: dog, Group 4, 0.5 mg/kg/day oral, fed, 0 h after initial dose
outcome_measure: concentration at 0 h (ng/mL)

smiles_str	reported_value
O=C(CNC(=O)c1sc(C2=NO[C@@](c3cc(Cl)c(F)c(Cl)c3)(C(F)(F)F)C2)c2c1CCC2)NCC(F)F	0

----------
assay_protocol: Plasma concentration of mivorilaner, 0.75 mg/kg daily oral (Examples 4 and 10)
Format: in vivo, dogs
condition_details: dog, 0.75 mg/kg/day, 0.75 mg/kg/day oral days 0-29, Day 3, read-out: Mivorilaner Concentration, individual canines
outcome_measure: concentration at 3 day

smiles_str	reported_value
O=C(CNC(=O)c1sc(C2=NO[C@@](c3cc(Cl)c(F)c(Cl)c3)(C(F)(F)F)C2)c2c1CCC2)NCC(F)F	648 ng/mL

----------
assay_protocol: Average plasma concentration of mivorilaner, various daily oral doses (Examples 5 and 11)
Type: in vivo, dogs
condition_details: dog, Group 5, 1.0 mg/kg/day oral, fed, 336 h after initial dose

smiles_str	concentration at 336 h / ng/mL
O=C(CNC(=O)c1sc(C2=NO[C@@](c3cc(Cl)c(F)c(Cl)c3)(C(F)(F)F)C2)c2c1CCC2)NCC(F)F	2690
